System: rodent lifetime carcinogenesis bioassay, tumor incidence TD50
assay notes: carcinogenic potency in animals, long-term in vivo studies, CPDB compilation (AID 1745844)
assay context: mouse; strain BALB/cStCrlfC3Hf/Nctr; females; in feed; site: uterus; lesion: adenocarcinoma; dosed 132 weeks; study length 133 weeks
measure: TD50 (mg/kg/day)
Respond numerically; units are mg/kg/day and should not be typed.

Task item: Please report TD50 for the following compound: CC/C(=C(/CC)c1ccc(O)cc1)c1ccc(O)cc1
Reply: 5.32

* * *

Tested on: rodent lifetime carcinogenesis bioassay, tumor incidence TD50
assay notes: carcinogenic potency in animals, long-term in vivo studies, CPDB compilation (AID 1745844)
assay context: mouse; strain B6C3F1; males; inhaled; site: all sites; lesion: hemangioma + hemangiosarcoma; dosed 103 weeks; study length 104 weeks
measure: TD50 (mg/kg/day)
Respond numerically; units are mg/kg/day and should not be typed.

Task item: Please report TD50 for the following compound: CC1CO1 (stereo unspecified)
Reply: 753

* * *

Tested on: rodent lifetime carcinogenesis bioassay, tumor incidence TD50
assay notes: carcinogenic potency in animals, long-term in vivo studies, CPDB compilation (AID 1745844)
assay context: rat; strain Sprague-Dawley; males; by gavage; site: liver; lesion: hepatocellular carcinoma; dosed 32 weeks; study length 101 weeks
measure: TD50

Task item: Please report the measured TD50 for O=NN(CCCC(F)(F)F)CCCC(F)(F)F tested on rodent lifetime carcinogenesis bioassay, tumor incidence TD50.
Reply: 0.793 mg/kg/day

* * *

Tested on: rodent lifetime carcinogenesis bioassay, tumor incidence TD50
assay notes: carcinogenic potency in animals, long-term in vivo studies, CPDB compilation (AID 1745844)
assay context: mouse; strain Slc:ddY; females; in feed; site: forestomach; lesion: several types; types named in the paper; dosed 78 weeks; study length 78 weeks
measure: TD50

Task item: Please report the measured TD50 for O=P(OCCCl)(OCCCl)OCCCl tested on rodent lifetime carcinogenesis bioassay, tumor incidence TD50.
Reply: 5500 mg/kg/day

* * *

Test system: rodent lifetime carcinogenesis bioassay, tumor incidence TD50
assay notes: carcinogenic potency in animals, long-term in vivo studies, CPDB compilation (AID 1745844)
assay context: mouse; strain C57BL; males; by gavage; site: any site (literature study); lesion: several types; types named in the paper; dosed 50 weeks; study length 72 weeks
measure: TD50 (mg/kg/day)
Respond numerically; units are mg/kg/day and should not be typed.

Task item: Please report the measured TD50 for CN(C)N=O tested on rodent lifetime carcinogenesis bioassay, tumor incidence TD50.
Reply: 0.06

* * *

Tested on: rodent lifetime carcinogenesis bioassay, tumor incidence TD50
assay notes: carcinogenic potency in animals, long-term in vivo studies, CPDB compilation (AID 1745844)
assay context: rat; strain Fischer 344; males; by gavage; site: kidney; lesion: tubular-cell adenoma; dosed 102 weeks; study length 104 weeks
measure: TD50

Task item: Please report TD50 for the following molecule: ClC(Cl)Br
Reply: 583 mg/kg/day

* * *

Tested on: rodent lifetime carcinogenesis bioassay, tumor incidence TD50
assay notes: carcinogenic potency in animals, long-term in vivo studies, CPDB compilation (AID 1745844)
assay context: rat; strain Fischer 344; males; in drinking water; site: skin; lesion: basal-cell carcinoma; dosed 88 weeks; study length 92 weeks
measure: TD50 (mg/kg/day)
Respond numerically; units are mg/kg/day and should not be typed.

Task item: Please report TD50 for the following compound: COc1cc(-c2ccc(N)c(OC)c2)ccc1N
Reply: 6.55

* * *

Tested on: rodent lifetime carcinogenesis bioassay, tumor incidence TD50
assay notes: carcinogenic potency in animals, long-term in vivo studies, CPDB compilation (AID 1745844)
assay context: mouse; strain B6C3F1; females; i.p.; site: lung; lesion: alveolar/bronchiolar adenoma; dosed 52 weeks; study length 85 weeks
measure: TD50

Task item: Please report the measured TD50 for CNNCc1ccc(C(=O)NC(C)C)cc1 tested on rodent lifetime carcinogenesis bioassay, tumor incidence TD50.
Reply: 3.83 mg/kg/day

* * *

Test system: rodent lifetime carcinogenesis bioassay, tumor incidence TD50
assay notes: carcinogenic potency in animals, long-term in vivo studies, CPDB compilation (AID 1745844)
assay context: rat; strain Fischer 344; males; in feed; site: any site (literature study); lesion: several types; types named in the paper; dosed 103 weeks; study length 105 weeks
Active and inactive are the calls of the source. No rule for the calls is given here.
For each entry below, report its TD50 value.

Task item: Please report TD50 for the following molecule: CNC(=O)ON=CC(C)(C)SC
Reply: 10.4 mg/kg/day (inactive)

Task item: Please report TD50 for the following molecule: CC(=O)c1ccc(S(=O)(=O)NC(=O)NC2CCCCC2)cc1
Reply: 2120 mg/kg/day

Task item: Please report TD50 for the following molecule: Cc1noc(NS(=O)(=O)c2ccc(N)cc2)c1C
Reply: 135 mg/kg/day (inactive)

Task item: Please report TD50 for the following molecule: CC1CCC(C(C)C)C(O)C1 (stereo not drawn)
Reply: 1410 mg/kg/day (inactive)

Task item: Please report TD50 for the following molecule: Nc1nc(N)nc(N)n1
Reply: 149 mg/kg/day

Task item: Please report TD50 for the following molecule: CO[C@H]1[C@@H](O)[C@@H](CO)OC(OC2C3CO[C@H]2[C@H](O)C(C)O3)[C@@H]1O (stereo partly drawn)
Reply: 39300 mg/kg/day (inactive)

Task item: Please report TD50 for the following molecule: Nc1ccc(O)c([N+](=O)[O-])c1
Reply: 270 mg/kg/day

Task item: Please report TD50 for the following molecule: CC
Reply: 7970 mg/kg/day (inactive)

* * *

Test system: rodent lifetime carcinogenesis bioassay, tumor incidence TD50
assay notes: carcinogenic potency in animals, long-term in vivo studies, CPDB compilation (AID 1745844)
assay context: rat; strain Fischer 344; females; in feed; site: uterus; lesion: adenocarcinoma; dosed 129 weeks; study length 129 weeks
Active and inactive are the calls of the source. How the calls were made is not given here.
measure: TD50

Task item: Please report the measured TD50 for OC[C@H]1O[C@@H]2O[C@H]3[C@H](O)[C@@H](O)[C@@H](O[C@H]4[C@H](O)[C@@H](O)[C@@H](O[C@H]5[C@H](O)[C@@H](O)[C@@H](O[C@H]6[C@H](O)[C@@H](O)[C@@H](O[C@H]7[C@H](O)[C@@H](O)[C@@H](O[C@H]8[C@H](O)[C@@H](O)[C@@H](O[C@H]1[C@H](O)[C@H]2O)O[C@@H]8CO)O[C@@H]7CO)O[C@@H]6CO)O[C@@H]5CO)O[C@@H]4CO)O[C@@H]3CO tested on rodent lifetime carcinogenesis bioassay, tumor incidence TD50.
Reply: 22700 mg/kg/day (inactive)

* * *

System: rodent lifetime carcinogenesis bioassay, tumor incidence TD50
assay notes: carcinogenic potency in animals, long-term in vivo studies, CPDB compilation (AID 1745844)
assay context: rat; strain F344/DuCrj; females; in feed; site: liver; lesion: hepatocellular carcinoma; dosed 72 weeks; study length 72 weeks
measure: TD50

Task item: Please report TD50 for the following compound: Cn1c(N)nc2c3cccnc3ccc21
Reply: 8.24 mg/kg/day

* * *

System: rodent lifetime carcinogenesis bioassay, tumor incidence TD50
assay notes: carcinogenic potency in animals, long-term in vivo studies, CPDB compilation (AID 1745844)
assay context: rat; strain Fischer 344; females; inhaled; site: nasal cavity; lesion: papillary adenoma; dosed 103 weeks; study length 104 weeks
measure: TD50

Task item: Please report TD50 for the following compound: CC1CO1 (stereo unspecified)
Reply: 732 mg/kg/day

* * *

System: rodent lifetime carcinogenesis bioassay, tumor incidence TD50
assay notes: carcinogenic potency in animals, long-term in vivo studies, CPDB compilation (AID 1745844)
assay context: mouse; strain B6C3F1; females; i.p.; site: all sites; lesion: lymphoma; dosed 52 weeks; study length 81 weeks
measure: TD50

Task item: Please report the measured TD50 for Nc1ncn([C@@H]2O[C@H](CO)[C@@H](O)[C@H]2O)c(=O)n1 tested on rodent lifetime carcinogenesis bioassay, tumor incidence TD50.
Reply: 0.615 mg/kg/day

* * *

Tested on: rodent lifetime carcinogenesis bioassay, tumor incidence TD50
assay notes: carcinogenic potency in animals, long-term in vivo studies, CPDB compilation (AID 1745844)
assay context: rat; strain Fischer 344; females; in drinking water; site: liver; lesion: hepatocellular carcinoma + neoplastic nodule; dosed 98 weeks; study length 104 weeks
measure: TD50

Task item: Please report TD50 for the following compound: Cc1ccc(S(=O)(=O)Oc2ccc(N=Nc3ccc(-c4ccc(N=Nc5c(O)ccc6cc(S(=O)(=O)O)cc(S(=O)(=O)O)c56)c(C)c4)cc3C)cc2)cc1
Reply: 14.2 mg/kg/day

* * *

Tested on: rodent lifetime carcinogenesis bioassay, tumor incidence TD50
assay notes: carcinogenic potency in animals, long-term in vivo studies, CPDB compilation (AID 1745844)
assay context: mouse; strain CD-1 HaM/ICR; males; in feed; site: liver; lesion: hepatoma; dosed 68 weeks; study length 77 weeks
measure: TD50

Task item: Please report the measured TD50 for Nc1c(Cl)cc(Cl)cc1Cl tested on rodent lifetime carcinogenesis bioassay, tumor incidence TD50.
Reply: 560 mg/kg/day

* * *

System: rodent lifetime carcinogenesis bioassay, tumor incidence TD50
assay notes: carcinogenic potency in animals, long-term in vivo studies, CPDB compilation (AID 1745844)
assay context: rat; strain Fischer 344; males; in drinking water; site: thyroid gland; lesion: follicular-cell adenoma; dosed 100 weeks; study length 100 weeks
measure: TD50 (mg/kg/day)
Respond numerically; units are mg/kg/day and should not be typed.

Task item: Please report TD50 for the following molecule: [O-][Br+2]([O-])O
Reply: 35.2
